Please consider the recorded MIC for B. cereus ATCC 11778 in what follows.
endpointLabel: MIC (µg/mL)

a = C=C(C)C1CCC(=C)C2(O)CCC3(C)C(CC(C)C)c4c(O)c(C=O)c(O)c(C=O)c4OC3C12 (stereo not shown)
b = Cc1c(O)c(C=O)c(O)c(C(=O)CC(C)C)c1O
Short answer wanted: higher MIC, a or b ? Write down the label of the entry you select.
a
(a: 32 µg/mL, b: 16 µg/mL)

* * *

# Tested on: B. cereus ATCC 11778
endpointLabel: MIC (µg/mL)

Please review the entries below; each comes with its answer.
C=C1CC[C@H](C(C)(C)O)/C=C/[C@@H](C)CCC1=O | 64
C[C@H]1[C@H](C)CC[C@]2(C(=O)O)CC[C@]3(C)C(=CC[C@@H]4[C@@]5(C)CC[C@H](O)C(C)(C)[C@@H]5CC[C@]43C)[C@H]12 | 32
COc1c(C)c(O)c2c(=O)cc(-c3ccc(O)cc3)oc2c1C | 64
CN(C)[C@@H]1C(O)=C(C(N)=O)C(=O)[C@@]2(O)C(O)=C3C(=O)c4c(O)cccc4[C@@](C)(O)[C@H]3C[C@@H]12 [tetracycline, reference compound] | 0.03

P = CCC(C)C(=O)c1c(O)cc(OC)c(C)c1O (stereo not drawn)
Q = COc1cc2oc(-c3ccc(O)cc3)cc(=O)c2c(O)c1C
Short answer wanted: higher MIC, P or Q ? Write down the label of the entry you select.
Q
(Q: 128 µg/mL, P: 8 µg/mL)
